Hello, the source for this data is patent US6525001B1, in case you need it.

test system: blackgrass (Alopecurus myosuroides); experiment: Test B pre-/postemergence; assay type: in vivo; conditions: Rate 250 g/ha, Postemergence
reported-metric: Plant response rating, Blackgrass
The reply should be a number, written without any unit.

Prompt: Look at this compound and give its reported Plant response rating, Blackgrass. Cc1cnc(-n2cnc(C(F)(F)F)c2)nc1C(=O)c1cccc(C(F)(F)F)c1
Response: 6

Prompt: Look at this compound and give its reported Plant response rating, Blackgrass. Cc1cnc(-c2ccc(C(F)(F)F)cc2)nc1Cc1cccc(OC(F)(F)F)c1
Response: 9

Prompt: Look at this compound and give its reported Plant response rating, Blackgrass. Cc1cnc(-c2ccc(C(F)(F)F)cc2)nc1C(=O)c1cccc(OC(F)(F)F)c1
Response: 8

Prompt: Look at this compound and give its reported Plant response rating, Blackgrass. Cc1cnc(-c2ccc(Cl)cc2)nc1Cc1cccc(C(F)(F)F)c1
Response: 8

Prompt: Look at this compound and give its reported Plant response rating, Blackgrass. CCc1cnc(-c2ccc(C(F)(F)F)cc2)nc1Cc1cccc(C(F)(F)F)c1
Response: 9

Prompt: Look at this compound and give its reported Plant response rating, Blackgrass. Cc1cnc(-c2ccc(Cl)cc2F)nc1Cc1cccc(C#N)c1
Response: 1

Prompt: Look at this compound and give its reported Plant response rating, Blackgrass. Cc1cnc(-n2cnc(C(F)(F)F)c2)nc1C(=O)c1cccc(OC(F)(F)F)c1
Response: 3

Prompt: Look at this compound and give its reported Plant response rating, Blackgrass. Cc1cnc(-c2ccc(Cl)cc2F)nc1Cc1cccc(C(F)(F)F)c1
Response: 5

Prompt: Look at this compound and give its reported Plant response rating, Blackgrass. Cc1cnc(-c2ccc(C(F)(F)F)cc2)nc1Cn1nc(C(F)(F)F)cc1C
Response: 5

Prompt: Look at this compound and give its reported Plant response rating, Blackgrass. Cc1cnc(-c2ccc(C(F)(F)F)cc2)nc1C(C)c1cccc(C(F)(F)F)c1 (racemic)
Response: 1

Prompt: Look at this compound and give its reported Plant response rating, Blackgrass. Cc1cnc(-c2ccc(C(F)(F)F)cc2)nc1Cc1cccc(C(F)(F)F)c1
Response: 9

Prompt: Look at this compound and give its reported Plant response rating, Blackgrass. Cc1cnc(-c2ccc(C(F)(F)F)cc2)nc1Cn1ccc(C(F)(F)F)n1
Response: 8

* * *

tested on: broadleaf signalgrass (Brachiaria decumbens); experiment: Test B pre-/postemergence; assay type: in vivo; settings: Rate 500 g/ha, Postemergence
reported-metric: Plant response rating, B. signalgrass
The reply should be a number, written without any unit.

Prompt: Look at this compound and give its reported Plant response rating, B. signalgrass. Cc1cnc(-c2ccc(C(F)(F)F)cc2)nc1Cn1cnc(C(F)(F)F)n1
Response: 7

Prompt: Look at this compound and give its reported Plant response rating, B. signalgrass. Cc1cnc(-c2ccc(C(F)(F)F)cc2)nc1C(=O)c1cccc(C(F)(F)F)c1
Response: 8

Prompt: Look at this compound and give its reported Plant response rating, B. signalgrass. Cc1cnc(-c2ccc(C(F)(F)F)cc2)nc1Cn1cnc(C(F)(F)F)c1
Response: 3

Prompt: Look at this compound and give its reported Plant response rating, B. signalgrass. Cc1cnc(-n2cnc(C(F)(F)F)n2)nc1C(=O)c1cccc(C(F)(F)F)c1
Response: 9

Prompt: Look at this compound and give its reported Plant response rating, B. signalgrass. Cc1cnc(-c2ccc(OC(F)(F)F)cc2)nc1Cc1cccc(C(F)(F)F)c1
Response: 1

Prompt: Look at this compound and give its reported Plant response rating, B. signalgrass. Cc1cnc(-c2ccc(C(F)(F)F)cc2)nc1Cn1ccc(C#N)n1
Response: 2

Prompt: Look at this compound and give its reported Plant response rating, B. signalgrass. Cc1cnc(-c2ccc(C(F)(F)F)cc2)nc1C(=O)c1ccc(C(F)(F)F)cc1
Response: 2

Prompt: Look at this compound and give its reported Plant response rating, B. signalgrass. Cc1cnc(-n2cnc(C(F)(F)F)n2)nc1C(=O)c1cccc(OC(F)(F)F)c1
Response: 8

Prompt: Look at this compound and give its reported Plant response rating, B. signalgrass. Cc1cnc(-c2ccc(C(F)(F)F)cc2)nc1Cc1cccc(C(F)(F)F)c1
Response: 9

* * *

Kindly state Plant response rating, Morningglory for each of the entries shown.
tested on: momingglory (Ipomoea hederacea); experiment: Test B pre-/postemergence; format: in vivo; set-up: key: 0 is no effect; 10 is complete control; conditions: Rate 250 g/ha, Postemergence
The reply should be a number, written without any unit.

Prompt: Look at this compound and give its reported Plant response rating, Morningglory. Cc1cnc(-n2ccc(C(F)(F)F)n2)nc1C(=O)c1cccc(C(F)(F)F)c1
Response: 10

Prompt: Look at this compound and give its reported Plant response rating, Morningglory. Cc1cnc(-c2ccc(F)cc2F)nc1Cc1cccc(C#N)c1
Response: 2

Prompt: Look at this compound and give its reported Plant response rating, Morningglory. Cc1cnc(-c2cccc(C(F)(F)F)c2)nc1Cc1cccc(C(F)(F)F)c1
Response: 10

Prompt: Look at this compound and give its reported Plant response rating, Morningglory. O=C(c1cccc(C(F)(F)F)c1)c1ccnc(-c2ccc(C(F)(F)F)cc2)n1
Response: 4

Prompt: Look at this compound and give its reported Plant response rating, Morningglory. Cc1cnc(-c2ccc(C(F)(F)F)cc2)nc1C(Cl)c1cccc(C(F)(F)F)c1 (racemic)
Response: 9

Prompt: Look at this compound and give its reported Plant response rating, Morningglory. CCc1cnc(-n2ccc(C(F)(F)F)n2)nc1C(=O)c1cccc(C#N)c1
Response: 4

Prompt: Look at this compound and give its reported Plant response rating, Morningglory. Cc1cnc(-n2ccc(C(F)(F)F)n2)nc1Cc1cccc(C(F)(F)F)c1
Response: 9

Prompt: Look at this compound and give its reported Plant response rating, Morningglory. Cc1cnc(-n2cnc(C(F)(F)F)n2)nc1C(=O)c1cccc(C(F)(F)F)c1
Response: 10

* * *

Kindly state Plant response rating, Nutsedge for each of the entries shown.
system: purple nutsedge (Cyperus rotundus); assay: Test B pre-/postemergence; format: in vivo; details: Rate 500 g/ha, Postemergence

Prompt: Look at this compound and give its reported Plant response rating, Nutsedge. Cc1cnc(-n2ccc(C(F)(F)F)n2)nc1Cc1cccc(C(F)(F)F)c1
Response: 2

Prompt: Look at this compound and give its reported Plant response rating, Nutsedge. Cc1cnc(-c2ccc(C(F)(F)F)cc2)nc1Cn1cc(Br)cn1
Response: 0

Prompt: Look at this compound and give its reported Plant response rating, Nutsedge. Cc1cnc(-c2ccc(Cl)cc2)nc1Cn1ccc(C(F)(F)F)n1
Response: 3

Prompt: Look at this compound and give its reported Plant response rating, Nutsedge. Cc1cnc(-c2ccc(C(F)(F)F)cc2)nc1Cn1ccc(C(F)(F)C(F)(F)F)n1
Response: 0

Prompt: Look at this compound and give its reported Plant response rating, Nutsedge. Cc1cnc(-c2ccc(C(F)(F)F)cc2)nc1Cn1cc(I)cn1
Response: 0

* * *

Kindly state Plant response rating, Blackgrass for each of the entries shown.
test system: blackgrass (Alopecurus myosuroides); experiment: Test B pre-/postemergence; format: in vivo; set-up: key: 0 is no effect; 10 is complete control; details: Rate 500 g/ha, Preemergence
The reply should be a number, written without any unit.

Prompt: Look at this molecule and give its reported Plant response rating, Blackgrass. Cc1cnc(-n2ccc(C(F)(F)F)n2)nc1Cc1cccc(C(F)(F)F)c1 [Example 2]
Response: 10

Prompt: Look at this molecule and give its reported Plant response rating, Blackgrass. Cc1cnc(-n2ccc(C(F)(F)F)n2)nc1C(=O)c1ccc(C(F)(F)F)cc1 [Compound 65]
Response: 0

Prompt: Look at this molecule and give its reported Plant response rating, Blackgrass. Cc1cnc(-n2cnc(C(F)(F)F)n2)nc1C(=O)c1cccc(C(F)(F)F)c1 [Compound 67]
Response: 9

Prompt: Look at this molecule and give its reported Plant response rating, Blackgrass. Cc1cnc(-c2ccc(C(F)(F)F)cc2)nc1Cn1cnc(C(F)(F)F)n1 [Compound 11]
Response: 5

Prompt: Look at this molecule and give its reported Plant response rating, Blackgrass. Cc1cnc(-c2ccc(C(F)(F)F)cc2)nc1Cn1cc(I)cn1 [Compound 12]
Response: 6

* * *

Kindly state Morningglory plant response rating for each of the entries shown.
Tested on: momingglory (Ipomoea hederacea)
Test: Test B pre-/postemergence
Format: in vivo
Details: Rate 125 g/ha, Preemergence
Experimental: […] At the same time, these crop and weed species were also treated with postemergence applications of test chemicals formulated in the same manner. […] Treated plants and controls were maintained in a greenhouse for twelve to sixteen days, after which all species were compared to controls and visually evaluated. […]
The reply should be a number, written without any unit.

Prompt: Look at this molecule and give its reported Morningglory plant response rating. Cc1cnc(-c2ccc(C(F)(F)F)cc2)nc1Cn1cnc(C(F)(F)F)n1
Response: 8

Prompt: Look at this molecule and give its reported Morningglory plant response rating. Cc1cnc(-c2ccccc2F)nc1Cc1cccc(C#N)c1
Response: 0

Prompt: Look at this molecule and give its reported Morningglory plant response rating. Cc1cnc(-c2ccc(C(F)(F)F)cc2)nc1Cn1ccc(C(F)(F)F)n1
Response: 10

Prompt: Look at this molecule and give its reported Morningglory plant response rating. Cc1cnc(-c2ccc(C(F)(F)F)cc2)nc1Cn1cc(I)cn1
Response: 6

Prompt: Look at this molecule and give its reported Morningglory plant response rating. Cc1cnc(-c2ccc(C(F)(F)F)cc2)nc1Cn1nc(C(F)(F)F)cc1C
Response: 10
